Reported pIC50 values are given for each entry in this list.
- Test system: HMLER
- method-notes: cells
- Format: cell-based, human
- experimental-setup: 72 h
pIC50: −log10 of the molar value. Peptide text beside a SMILES is read from it.

molecule	experimental-system	pIC50
CC(C)C[C@H](NC(=O)CN)C(=O)N[C@@H](CC(C)C)C(=O)N[C@@H](CCCCN)C(=O)N[C@@H](CC(C)C)C(=O)N[C@@H](CC(C)C)C(=O)N[C@@H](CCCCN)C(=O)N[C@@H](CC(C)C)C(=O)N[C@@H](CC(C)C)C(=O)N[C@@H](CC(C)C)C(=O)N[C@@H](Cc1c[nH]cn1)C(=O)N[C@@H](C)C(=O)N[C@@H](C)C(=O)NCC(=O)N[C@@H](Cc1c[nH]c2ccccc12)C(N)=O [KKH] (H-GLLKLLKLLLHAAGW-NH2)	HMLER	5.62
CC(C)C[C@H](NC(=O)CN)C(=O)N[C@@H](CC(C)C)C(=O)N[C@@H](Cc1c[nH]cn1)C(=O)N[C@@H](CC(C)C)C(=O)N[C@@H](CC(C)C)C(=O)N[C@@H](Cc1c[nH]cn1)C(=O)N[C@@H](CC(C)C)C(=O)N[C@@H](CC(C)C)C(=O)N[C@@H](CC(C)C)C(=O)N[C@@H](CCCCN)C(=O)N[C@@H](C)C(=O)N[C@@H](C)C(=O)NCC(=O)N[C@@H](Cc1c[nH]c2ccccc12)C(N)=O [HHK] (H-GLLHLLHLLLKAAGW-NH2)	HMLER	5.50
CC(C)C[C@H](NC(=O)CN)C(=O)N[C@@H](CC(C)C)C(=O)N[C@@H](CC(=O)O)C(=O)N[C@@H](CC(C)C)C(=O)N[C@@H](CC(C)C)C(=O)N[C@@H](CCCCN)C(=O)N[C@@H](CC(C)C)C(=O)N[C@@H](CC(C)C)C(=O)N[C@@H](CC(C)C)C(=O)N[C@@H](CCCCN)C(=O)N[C@@H](C)C(=O)N[C@@H](C)C(=O)NCC(=O)N[C@@H](Cc1c[nH]c2ccccc12)C(N)=O [DKK] (H-GLLDLLKLLLKAAGW-NH2)	HMLER	5.71

----------
Reported Lipid Concentration-induced 50% Peptide Binding (L/P), 3POPC/1POPG Vesicle values are given for each entry in this list.
- method-notes: Tryptophan fluorescent binding assay
- experimental-setup: tryptophan fluorescence; 50 µM peptide, lipid titrated 0-5000 µM; phosphate buffered saline 1X, pH 7.4; values as lipid per peptide
Peptide text beside a SMILES is read from it.
assay-endpoint: Lipid Concentration-induced 50% Peptide Binding (L/P), 3POPC/1POPG Vesicle

compound	observed-result
CC(C)C[C@H](NC(=O)CN)C(=O)N[C@@H](CC(C)C)C(=O)N[C@@H](CCC(=O)O)C(=O)N[C@@H](CC(C)C)C(=O)N[C@@H](CC(C)C)C(=O)N[C@@H](CCCCN)C(=O)N[C@@H](CC(C)C)C(=O)N[C@@H](CC(C)C)C(=O)N[C@@H](CC(C)C)C(=O)N[C@@H](CCC(=O)O)C(=O)N[C@@H](C)C(=O)N[C@@H](C)C(=O)NCC(=O)N[C@@H](Cc1c[nH]c2ccccc12)C(N)=O [EKE] (H-GLLELLKLLLEAAGW-NH2)	1.63
CC(C)C[C@H](NC(=O)CN)C(=O)N[C@@H](CC(C)C)C(=O)N[C@@H](Cc1c[nH]cn1)C(=O)N[C@@H](CC(C)C)C(=O)N[C@@H](CC(C)C)C(=O)N[C@@H](CCCCN)C(=O)N[C@@H](CC(C)C)C(=O)N[C@@H](CC(C)C)C(=O)N[C@@H](CC(C)C)C(=O)N[C@@H](CCC(=O)O)C(=O)N[C@@H](C)C(=O)N[C@@H](C)C(=O)NCC(=O)N[C@@H](Cc1c[nH]c2ccccc12)C(N)=O [HKE] (H-GLLHLLKLLLEAAGW-NH2)	0.25
CC(C)C[C@H](NC(=O)CN)C(=O)N[C@@H](CC(C)C)C(=O)N[C@@H](CCCCN)C(=O)N[C@@H](CC(C)C)C(=O)N[C@@H](CC(C)C)C(=O)N[C@@H](CCC(=O)O)C(=O)N[C@@H](CC(C)C)C(=O)N[C@@H](CC(C)C)C(=O)N[C@@H](CC(C)C)C(=O)N[C@@H](CCC(=O)O)C(=O)N[C@@H](C)C(=O)N[C@@H](C)C(=O)NCC(=O)N[C@@H](Cc1c[nH]c2ccccc12)C(N)=O [KEE] (H-GLLKLLELLLEAAGW-NH2)	0.20
